The origin of these recorded values is ChEMBL document CHEMBL5584307.

- experiment.notes: Half life in overnight-fasted Sprague-Dawley rat at 5 mg/kg, po measured upto 24 hrs by LC-MS/MS analysis
- Format: ADME, organism-based
- condition.label: in vivo
Kindly return t if reported half-life is no lower than 3 h; return f if it is lower.

> print(dat)
                                 smiles.str  class.name
1    N#Cc1cc(-c2ccc(C(=O)O)c(O)c2)c2occc2c1           t
2  N#Cc1cc(-c2ccc(C(=O)O)c(O)c2)c2oc(F)cc2c1           f
3    N#Cc1cc(-c2ccc(C(=O)O)c(O)c2)c2ccoc2c1           f
4    N#Cc1cc(-c2ccc(C(=O)O)c(O)c2)c2ccsc2c1           f

###

- experiment.notes: AUC (last) in Tufted capuchin monkey at 30 mg/kg, po measured for 24 hrs by LC-MS/MS analysis
- Assay type: ADME, organism-based
- condition.label: sapajus apella, in vivo
measured.endpoint: AUC(0-t) at 24 h (ng·h/mL)

> print(dat)
                                 smiles.str  measured.value
1  N#Cc1cc(-c2ccc(C(=O)O)c(O)c2)c2oc(F)cc2c1           31600

###

- experiment.notes: Toxicity in rat
- condition.label: in vivo
measured.endpoint: MTD (mg/kg)

> print(dat)
                                 smiles.str  result.units  measured.value
1  N#Cc1cc(-c2ccc(C(=O)O)c(O)c2)c2oc(F)cc2c1         mg/kg             450

###

- experiment.notes: AUC (0 to t) in male cynomolgous monkey at 30 mg/kg/day for 28 days
- Format: ADME, organism-based, Macaca fascicularis
- condition.label: cynomolgus monkey, in vivo, time 28 day
measured.endpoint: AUC(0-t) at 672 h (µg·h/mL)

> print(dat)
                                 smiles.str  measured.value
1  N#Cc1cc(-c2ccc(C(=O)O)c(O)c2)c2oc(F)cc2c1             339

###

- experiment.notes: AUC (0 to t) in male rat at 60 mg/kg/day for 28 days
- Type: ADME, organism-based
- condition.label: in vivo, time 28 day
measured.endpoint: AUC(0-t) at 672 h (µg·h/mL)

> print(dat)
                                 smiles.str  result.units  measured.value
1  N#Cc1cc(-c2ccc(C(=O)O)c(O)c2)c2oc(F)cc2c1       µg·h/mL            2250

###

- experiment.notes: Toxicity in monkey
- Parameters: species or system Macaca mulatta
- condition.label: rhesus monkey, in vivo
measured.endpoint: MTD (mg/kg)

> print(dat)
                                 smiles.str  measured.value
1  N#Cc1cc(-c2ccc(C(=O)O)c(O)c2)c2oc(F)cc2c1            1000

###

- experiment.notes: Half life in Tufted capuchin monkey at 10 mg/kg, po measured for 24 hrs by LC-MS/MS analysis
- Assay type: ADME, organism-based
- condition.label: sapajus apella, in vivo
measured.endpoint: half-life

> print(dat)
                                 smiles.str  measured.value
1  N#Cc1cc(-c2ccc(C(=O)O)c(O)c2)c2oc(F)cc2c1          1.52 h

###

- experiment.notes: Volume of distribution at steady state in overnight-fasted Sprague-Dawley rat at 5 mg/kg, po or 1 mg/kg, iv measured upto 24 hrs by LC-MS/MS analysis
- Format: ADME, organism-based
- condition.label: in vivo
measured.endpoint: Vdss (L/kg)

> print(dat)
                                 smiles.str  measured.endpoint  result.units  measured.value
1  N#Cc1cc(-c2ccc(C(=O)O)c(O)c2)c2oc(F)cc2c1               Vdss          L/kg            0.31
2    N#Cc1cc(-c2ccc(C(=O)O)c(O)c2)c2occc2c1               Vdss          L/kg           0.399
3    N#Cc1cc(-c2ccc(C(=O)O)c(O)c2)c2ccsc2c1               Vdss          L/kg             0.4
4  N#Cc1cc(-c2ccc(C(=O)O)c(O)c2)c2oc(Cl)cc2c1               Vdss          L/kg             0.4
5    N#Cc1cc(-c2ccc(C(=O)O)c(O)c2)c2ccoc2c1               Vdss          L/kg           0.155

###

- experiment.notes: Tmax in Tufted capuchin monkey at 30 mg/kg, po measured for 24 hrs by LC-MS/MS analysis
- Type: ADME, organism-based
- condition.label: sapajus apella, in vivo
measured.endpoint: Tmax (min)

> print(dat)
                                 smiles.str  measured.value
1  N#Cc1cc(-c2ccc(C(=O)O)c(O)c2)c2oc(F)cc2c1              48

###

Below, each entry is listed with its recorded AUC(0-t) at 24 h.
- experiment.notes: AUC (last) in overnight-fasted Sprague-Dawley rat at 5 mg/kg, po measured upto 24 hrs by LC-MS/MS analysis
- Assay type: ADME, organism-based
- condition.label: in vivo
measured.endpoint: AUC(0-t) at 24 h (ng·h/mL)

> print(dat)
                                 smiles.str  measured.endpoint  measured.value
1  N#Cc1cc(-c2ccc(C(=O)O)c(O)c2)c2oc(Cl)cc2c1   AUC(0-t) at 24 h           28100
2    N#Cc1cc(-c2ccc(C(=O)O)c(O)c2)c2ccoc2c1   AUC(0-t) at 24 h           43200
3  N#Cc1cc(-c2ccc(C(=O)O)c(O)c2)c2oc(F)cc2c1   AUC(0-t) at 24 h           81700
